Reference for the values: ChEMBL document CHEMBL6109146

# Test system: Candida albicans
# Protocol Notes: Antifungal activity against Candida albicans SC5314 assessed as inhibition of fungal growth incubated for 48 to 72 hrs by microplate reader analysis
# Type: functional, organism-based
# Measurement Context: time 48-72 hrs
The source made the active and inactive calls. No cut-off for these calls is given here.
Metric: Activity

smiles_string=S=C(Nc1ccc(C2CCCCC2)cc1)Nc1cc[nH]n1 result=inactive
smiles_string=Nc1cc(=O)n(C(=S)Nc2ccc(OC3CCCCC3)cc2)[nH]1 result=Active
smiles_string=Nc1cc(=O)n(C(=S)Nc2ccc3c(c2)COC3=O)[nH]1 result=inactive
smiles_string=Nc1cc(=O)n(C(=S)Nc2ccc(OC3CCCC3)cc2)[nH]1 result=Active
smiles_string=CCCCCCc1ccc(NC(=S)N2N=C(N)CCC2=O)cc1 result=inactive
smiles_string=Nc1ccn(C(=S)Nc2ccc(C3CCCCC3)cc2)n1 result=inactive
smiles_string=CC(=O)c1ccc(NC(=O)n2[nH]c(N)cc2=O)cc1 result=inactive
smiles_string=CCCCCCCCc1ccc(NC(=S)n2[nH]c(N)cc2=O)cc1 result=Active
smiles_string=Nc1cc(=O)n(C(=S)Nc2ccc(C(=O)c3ccccc3)cc2)[nH]1 result=inactive
smiles_string=CCCCc1ccc(NC(=S)n2[nH]c(N)cc2=O)cc1 result=Active
smiles_string=Nc1cc(=O)n(C(=S)Nc2ccc(C3CCCCC3)cc2)[nH]1 result=Active
smiles_string=CCc1ccc(NC(=O)n2[nH]c(N)cc2=O)cc1 result=inactive
smiles_string=CCc1ccc(NC(=S)n2[nH]c(N)cc2=O)cc1 result=Active
smiles_string=CCCCCCc1ccc(NC(=S)n2[nH]c(N)cc2=O)cc1 result=Active
smiles_string=Nc1cc(=O)n(C(=S)Nc2cccnc2)[nH]1 result=inactive

----------
# Protocol Notes: Cmax in male ICR mouse at 20 mg/kg, po measured after 24 hrs by LC-MS/MS analysis
# Format: ADME, organism-based
# Measurement Context: in vivo
Metric: Cmax (ng/mL)

smiles_string=Nc1cc(=O)n(C(=S)Nc2ccc(C3CCCCC3)cc2)[nH]1 metric=Cmax units_symbol=ng/mL numeric_result=1720

----------
# Test system: Cryptococcus gattii
# Protocol Notes: Antifungal activity against Cryptococcus gattii 01063P assessed as inhibition of fungal growth incubated for 48 to 72 hrs by microplate reader analysis
# Assay type: functional
# Measurement Context: time 48-72 hrs
The source made the active and inactive calls. The calls are words filed in the database; no cut-off is given here.
Outcomes: t (active), f (inactive)

smiles_string=Nc1cc(=O)n(C(=S)Nc2ccc(OC3CCCCC3)cc2)[nH]1 tgt="Cryptococcus gattii" label_value=t
smiles_string=Nc1cc(=O)n(C(=S)Nc2ccc(C(F)(F)F)cc2)[nH]1 tgt="Cryptococcus gattii" label_value=f
smiles_string=CC(=O)c1ccc(NC(=S)n2[nH]c(N)cc2=O)cc1 tgt="Cryptococcus gattii" label_value=f
smiles_string=CCc1ccc(NC(=S)n2[nH]c(N)cc2=O)cc1 tgt="Cryptococcus gattii" label_value=t
smiles_string=CCCCCCCCc1ccc(NC(=S)n2[nH]c(N)cc2=O)cc1 tgt="Cryptococcus gattii" label_value=t
smiles_string=S=C(Nc1ccc(C2CCCCC2)cc1)Nc1cc[nH]n1 tgt="Cryptococcus gattii" label_value=f
smiles_string=Nc1cc(=O)n(C(=S)Nc2ccc(OC3CCCC3)cc2)[nH]1 tgt="Cryptococcus gattii" label_value=t
smiles_string=Nc1cc(=O)n(C(=S)Nc2ccc3ncccc3c2)[nH]1 tgt="Cryptococcus gattii" label_value=t
smiles_string=Nc1ccn(C(=S)Nc2ccc(C3CCCCC3)cc2)n1 tgt="Cryptococcus gattii" label_value=f
smiles_string=CCCCc1ccc(NC(=S)n2[nH]c(N)cc2=O)cc1 tgt="Cryptococcus gattii" label_value=t
smiles_string=CC(=O)c1ccc(NC(=O)n2[nH]c(N)cc2=O)cc1 tgt="Cryptococcus gattii" label_value=f
smiles_string=CNC(=O)c1ccc(NC(=S)n2[nH]c(N)cc2=O)cc1 tgt="Cryptococcus gattii" label_value=f

----------
# Tested on: Cryptococcus gattii
# Protocol Notes: Antifungal activity against Cryptococcus gattii 01063P assessed as inhibition of fungal growth incubated for 48 to 72 hrs by microplate reader analysis
# Assay type: functional
# Measurement Context: time 48-72 hrs
Active and inactive are the calls of the source. The calls are words filed in the database; no cut-off is given here.
Possible outcomes: 1 = active, 0 = inactive

smiles_string=Nc1cc(=O)n(C(=S)Nc2ccc3c(c2)COC3=O)[nH]1 label_value=0
smiles_string=CCc1ccc(NC(=O)n2[nH]c(N)cc2=O)cc1 label_value=0
smiles_string=CCCCCCc1ccc(NC(=S)n2[nH]c(N)cc2=O)cc1 label_value=1
smiles_string=Nc1cc(=O)n(C(=S)Nc2ccc(C(=O)c3ccccc3)cc2)[nH]1 label_value=1
smiles_string=CCCCCCc1ccc(NC(=S)N2N=C(N)CCC2=O)cc1 label_value=0
smiles_string=Nc1cc(=O)n(C(=S)Nc2cccnc2)[nH]1 label_value=0
smiles_string=CS(=O)(=O)c1ccc(NC(=S)n2[nH]c(N)cc2=O)cc1 label_value=0

----------
# Protocol Notes: Tmax in male ICR mouse at 20 mg/kg, po measured after 24 hrs by LC-MS/MS analysis
# Format: ADME, organism-based
# Measurement Context: in vivo
Metric: Tmax (min)

smiles_string=Nc1cc(=O)n(C(=S)Nc2ccc(C3CCCCC3)cc2)[nH]1 metric=Tmax numeric_result=15

----------
# Protocol Notes: Oral bioavailability in male ICR mouse at 20 mg/kg measured after 24 hrs by LC-MS/MS analysis
# Type: ADME, organism-based
# Measurement Context: in vivo
Metric: bioavailability (%)

smiles_string=Nc1cc(=O)n(C(=S)Nc2ccc(C3CCCCC3)cc2)[nH]1 numeric_result=22.6

----------
# Protocol Notes: Cytotoxicity against HUVEC cells assessed as inhibition of cell proliferation incubated for 48 hrs by WST-8 reagent based assay
# Assay type: toxicity
# Measurement Context: human
Metric: IC50 at 48 h (µg/mL)

smiles_string=Nc1cc(=O)n(C(=S)Nc2ccc(C3CCCCC3)cc2)[nH]1 metric="IC50 at 48 h" numeric_result=0.64

----------
# Protocol Notes: Cmax in male ICR mouse at 2 mg/kg, iv measured after 24 hrs by LC-MS/MS analysis
# Format: ADME, organism-based
# Measurement Context: in vivo
Metric: Cmax (ng/mL)

smiles_string=Nc1cc(=O)n(C(=S)Nc2ccc(C3CCCCC3)cc2)[nH]1 numeric_result=2810

----------
# Protocol Notes: Volume of distribution at steady state in male ICR mouse at 2 mg/kg, iv measured after 24 hrs by LC-MS/MS analysis
# Assay type: ADME, organism-based
# Measurement Context: in vivo, read-out: Vdss
Metric: Vd

smiles_string=Nc1cc(=O)n(C(=S)Nc2ccc(C3CCCCC3)cc2)[nH]1 metric=Vd result="1.47 L/kg"

----------
# Protocol Notes: Cytotoxicity against human L02 cells assessed as inhibition of cell proliferation incubated for 48 hrs by WST-8 reagent based assay
# Format: toxicity
Metric: IC50 at 48 h (µg/mL)

smiles_string=Nc1cc(=O)n(C(=S)Nc2ccc(C3CCCCC3)cc2)[nH]1 units_symbol=µg/mL numeric_result=13.9

----------
# Protocol Notes: Clearance in male ICR mouse at 2 mg/kg, iv measured after 24 hrs by LC-MS/MS analysis
# Assay type: ADME, organism-based
# Measurement Context: in vivo
Metric: clearance (mL/min/kg)

smiles_string=Nc1cc(=O)n(C(=S)Nc2ccc(C3CCCCC3)cc2)[nH]1 metric=clearance numeric_result=16.2

----------
# Protocol Notes: AUC (0 to t) in male ICR mouse at 20 mg/kg, po measured after 24 hrs by LC-MS/MS analysis
# Type: ADME, organism-based
# Measurement Context: in vivo
Metric: AUC(0-t) at 24 h (ng·h/mL)

smiles_string=Nc1cc(=O)n(C(=S)Nc2ccc(C3CCCCC3)cc2)[nH]1 numeric_result=4600

----------
# Protocol Notes: Half-life in male ICR mouse at 20 mg/kg, po measured after 24 hrs by LC-MS/MS analysis
# Assay type: ADME, organism-based
# Measurement Context: in vivo
Metric: half-life (h)

smiles_string=Nc1cc(=O)n(C(=S)Nc2ccc(C3CCCCC3)cc2)[nH]1 numeric_result=1.46
